EXPERIMENT_NOTES: chemical genetic growth profiling, strain panel (AID 1159580);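 also: tested at 20 µM; growth read once vehicle control cultures reached saturation at 30 °C; 1 = growth at the plate median or of vehicle wells; lower values mean less growth of the strain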
CONDITION: S. cerevisiae deletion strains, growth OD, locus YOR316C, strain cot1, hits give low values
Among all 5,500 compounds or so, about 2,000 (36%) were called active. Not shown: some 18% with an inconclusive outcome. The list shows a part of the results.
READOUT_LABEL: normalized growth

Recorded normalized growth, per entry:
CN1C2CC3C[C@H]1C(O3)C2O (some centres not stated) :: 1.04 (inactive)
Cc1cc(=O)c2c(O)c(C)c(O)cc2o1 :: 0.983 (inactive)
CC(C(=O)O)c1ccc2c(c1)[nH]c1ccc(Cl)cc12 (configuration not stated) :: 0.989 (inactive)

-- ask Given COC(=O)C1[C@H]2C[C@H]3c4[nH]c5ccccc5c4CCN3C[C@@H]2CC[C@@H]1O (some centres not stated) , state its recorded normalized growth.
-- reply 1.02 (inactive)

-- ask Given CC(=O)OCC(CCn1cnc2cnc(N)nc21)COC(C)=O , state its recorded normalized growth.
-- reply 0.958 (inactive)

-- ask Given CNc1ccccc1C(=O)N1CCc2c([nH]c3ccccc23)C1=O , state its recorded normalized growth.
-- reply 0.982 (inactive)
